Ref: patent US6329137A

Tested on: PTPs (PTP1B-FL, CD45-cat and CD45-FL)
Assay type: cell-based
assay-setup: read-out: IC50 values in the range of
pIC50: −log10 of the molar value.
reported-property: pIC50

Q: Quick check: pIC50 of OO [hydrogen peroxide] ?
A: 4.80 to 5.15

====

tested-on: UniProtKB P18031
Sequence (P18031 whole entry): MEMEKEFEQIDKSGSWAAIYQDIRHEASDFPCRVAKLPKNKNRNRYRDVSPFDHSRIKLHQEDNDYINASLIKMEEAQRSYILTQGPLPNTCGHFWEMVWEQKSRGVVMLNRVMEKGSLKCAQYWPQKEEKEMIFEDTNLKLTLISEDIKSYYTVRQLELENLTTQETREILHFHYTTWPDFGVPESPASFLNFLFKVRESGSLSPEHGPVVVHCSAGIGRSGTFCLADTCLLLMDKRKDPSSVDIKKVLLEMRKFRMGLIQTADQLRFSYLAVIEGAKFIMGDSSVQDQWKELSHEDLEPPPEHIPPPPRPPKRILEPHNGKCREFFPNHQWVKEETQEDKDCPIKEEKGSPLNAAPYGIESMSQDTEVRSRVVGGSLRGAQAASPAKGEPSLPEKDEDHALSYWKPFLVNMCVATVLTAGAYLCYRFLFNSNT
reported-property: IC50

Q: Quick check: IC50 of OO [hydrogen peroxide] ?
A: 10 to 15 µM
